# experimental.protocol: Stability in human liver microsome after 20 mins
# Format: ADME
# condition.details: liver microsomes, read-out: Stability
test.readout: remaining at 20 min

{"compound": "CNC(=O)c1ccc(CC2CCN(CCCN(C(=O)C3CCN(S(C)(=O)=O)CC3)c3ccc(Cl)c(Cl)c3)CC2)cc1", "test.readout": "remaining at 20 min", "result": "83%"}
{"compound": "CS(=O)(=O)N1CCC(C(=O)N(CCCN2CCC(NS(=O)(=O)c3ccc(F)cc3)CC2)c2ccc(Cl)c(Cl)c2)CC1", "test.readout": "remaining at 20 min", "result": "55%"}
{"compound": "CS(=O)(=O)c1ccc(CC2CCN(CCCN(C(=O)C3CCN(S(C)(=O)=O)CC3)c3ccc(Cl)c(Cl)c3)CC2)cc1", "test.readout": "remaining at 20 min", "result": "62%"}
{"compound": "CN(C)C(=O)c1ccc(CC2CCN(CCCN(C(=O)C3CCN(S(C)(=O)=O)CC3)c3ccc(Cl)c(Cl)c3)CC2)cc1", "test.readout": "remaining at 20 min", "result": "74%"}
{"compound": "CC(=O)N1CCC(C(=O)N(CCCN2CCC(Sc3ccc(F)cc3)CC2)c2ccc(Cl)c(Cl)c2)CC1", "test.readout": "remaining at 20 min", "result": "30%"}
{"compound": "CC(=O)N1CCC(C(=O)N(CCCN2CCC(Cc3ccc(C(N)=O)cc3)CC2)c2ccc(C)c(Cl)c2)CC1", "test.readout": "remaining at 20 min", "result": "92%"}
{"compound": "CC(=O)N1CCC(C(=O)N(CCCN2CCC(Cc3ccc(C(N)=O)cc3)CC2)c2ccc(Cl)c(Cl)c2)CC1", "test.readout": "remaining at 20 min", "result": "88%"}
{"compound": "CS(=O)(=O)N1CCC(C(=O)N(CCCN2CCC(Cc3ccccc3C(N)=O)CC2)c2ccc(Cl)c(Cl)c2)CC1", "test.readout": "remaining at 20 min", "result": "91%"}
{"compound": "CC(=O)N1CCC(C(=O)N(CCCN2CCC([S+]([O-])c3ccc(F)cc3)CC2)c2ccc(Cl)c(Cl)c2)CC1 (configuration not stated)", "test.readout": "remaining at 20 min", "result": "36%"}
{"compound": "CS(=O)(=O)N1CCC(C(=O)N(CCCN2CCC(Cc3ccc(C(=O)O)cc3)CC2)c2ccc(Cl)c(Cl)c2)CC1", "test.readout": "remaining at 20 min", "result": "94%"}
{"compound": "CS(=O)(=O)N1CCC(C(=O)N(CCCN2CCC(NC(=O)c3ccc(F)cc3)CC2)c2ccc(Cl)c(Cl)c2)CC1", "test.readout": "remaining at 20 min", "result": "87%"}
{"compound": "CC(C)(C)NC(=O)c1ccc(CC2CCN(CCCN(C(=O)C3CCN(S(C)(=O)=O)CC3)c3ccc(Cl)c(Cl)c3)CC2)cc1", "test.readout": "remaining at 20 min", "result": "57%"}
{"compound": "COC(=O)c1ccc(CC2CCN(CCCN(C(=O)C3CCN(S(C)(=O)=O)CC3)c3ccc(Cl)c(Cl)c3)CC2)cc1", "test.readout": "remaining at 20 min", "result": "66%"}
{"compound": "CS(=O)(=O)N1CCC(C(=O)N(CCCN2CCC(Cc3cccc(C(N)=O)c3)CC2)c2ccc(Cl)c(Cl)c2)CC1", "test.readout": "remaining at 20 min", "result": "81%"}
{"compound": "CC(=O)N1CCC(C(=O)N(CCCN2CCC(Cc3ccc(F)cc3)CC2)c2ccc(Cl)c(Cl)c2)CC1", "test.readout": "remaining at 20 min", "result": "47%"}
{"compound": "CS(=O)(=O)N1CCC(C(=O)N(CCCN2CCC(Cc3ccc(C#N)cc3)CC2)c2ccc(Cl)c(Cl)c2)CC1", "test.readout": "remaining at 20 min", "result": "50%"}
{"compound": "CC(=O)N1CCC(C(=O)N(CCCN2CCC(S(=O)(=O)c3ccc(F)cc3)CC2)c2ccc(Cl)c(Cl)c2)CC1", "test.readout": "remaining at 20 min", "result": "31%"}
